Data provenance: ChEMBL document CHEMBL3259747

- measured on: UniProtKB Q06187
- Sequence (Q06187 whole entry, the tested form may be a part): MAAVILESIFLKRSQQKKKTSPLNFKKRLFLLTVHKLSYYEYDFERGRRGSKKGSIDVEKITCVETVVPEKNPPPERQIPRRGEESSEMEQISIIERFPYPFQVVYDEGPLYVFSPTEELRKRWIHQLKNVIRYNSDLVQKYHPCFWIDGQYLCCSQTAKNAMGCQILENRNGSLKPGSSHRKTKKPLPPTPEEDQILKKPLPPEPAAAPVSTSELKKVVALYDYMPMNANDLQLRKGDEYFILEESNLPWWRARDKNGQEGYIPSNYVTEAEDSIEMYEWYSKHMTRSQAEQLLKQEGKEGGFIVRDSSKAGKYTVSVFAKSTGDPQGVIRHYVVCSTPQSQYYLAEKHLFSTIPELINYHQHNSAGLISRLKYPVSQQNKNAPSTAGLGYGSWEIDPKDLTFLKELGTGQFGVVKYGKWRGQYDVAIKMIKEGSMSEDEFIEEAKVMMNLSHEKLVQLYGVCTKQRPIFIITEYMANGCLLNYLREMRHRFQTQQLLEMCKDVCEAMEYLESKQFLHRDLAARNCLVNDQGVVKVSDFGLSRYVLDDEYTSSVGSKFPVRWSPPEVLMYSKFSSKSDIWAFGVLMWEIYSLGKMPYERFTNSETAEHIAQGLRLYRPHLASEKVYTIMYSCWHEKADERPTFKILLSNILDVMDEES
- assay overview: Inhibition of PtdIns(3,4,5)P3 binding to Btk PH domain (unknown origin) expressed in Escherichia coli BL21(DE3) RIL cells at 100 uM by surface plasmon resonance assay relative to untreated control
measured attribute: inhibition (%)

# compound, measured attribute, value measured
records = [
    ("CCOP(=O)(O)c1n[nH]c(C(=O)O)c1C(=O)O", "inhibition", 34),
    ("O=C(O)c1cc(P(=O)(O)O)n[nH]1", "inhibition", 95),
    ("CC1(C(=O)O)NN=C(P(=O)(O)O)C1C(=O)O (stereo unspecified)", "inhibition", 64),
    ("COP(=O)(O)c1cc(C(=O)O)[nH]n1", "inhibition", 48),
    ("CC1(C(=O)O)CC([PH](=O)O)=NN1 (stereo unspecified)", "inhibition", 71),
    ("CCOP(=O)(O)c1cc(C(=O)O)[nH]n1", "inhibition", 37),
    ("O=C1[C@@H]2C[C@@H]3O[C@]2(C(O)C3O)[C@@H](P(=O)(O)O)N1Cc1ccccc1 (stereo partly specified)", "inhibition", 13),
    ("CCOP(=O)(O)C1=NNC(C)(C(=O)O)C1 (stereo unspecified)", "inhibition", 41),
    ("O=C1[C@@H]2C[C@@H]3O[C@]2(C(O)C3OP(=O)(O)O)[C@@H](P(=O)(O)O)N1Cc1ccccc1 (stereo partly specified)", "inhibition", 11),
    ("O=C1[C@@H]2C[C@H]3CC[C@@]2(O3)[C@@H](P(=O)(O)O)N1Cc1ccccc1", "inhibition", 38),
    ("COP(=O)(O)C1=NNC(C)(C(=O)O)C1 (stereo unspecified)", "inhibition", 52),
]
